system: recombinant IL4I1 (Homo sapiens (Human))
measurement_notes: IL4I1 Enzymatic Assay (Amplex Red/HRP coupled H2O2 detection)
measurement_setup: 1 nM IL4I1, 1 mM each Phe/Tyr/Trp, four-hour pre-incubation, 120 minutes reaction, top compound concentration of 10000 nM
pEC50: −log10 of the molar value.
Returns one of True or False; True when pEC50 is >= 8.

Some solved cases for reference:
compound	classification
COC(=O)NCc1nnc(Cc2cc3ccccc3[nH]c2=O)o1 [Example 43]	False
CNCc1cccc2cc(Cc3cccc(OC(F)(F)F)c3)c(=O)[nH]c12 [Example 180]	False
O=c1[nH]c2ccccc2cc1Cc1ccc(-c2cnccn2)c(F)c1 [Example 127]	True
CC(O)C(C#N)c1ccc(Cc2cc3ccccc3[nH]c2=O)cc1 (single isomer, unassigned) [Example 102A]	True
O=C1COc2c(F)cc(Cc3cc4ccccc4[nH]c3=O)cc2N1 [Example 176]	True

Moving on to the next compound.
Check if pEC50 >= 8 (inclusive). Item: O=c1[nH]c2ncccc2cc1Cc1cccc(OC(F)(F)F)c1 [Example 106]
False

###

system: recombinant IL4I1 (Homo sapiens (Human), UniProt Q96RQ9)
Sequence (Q96RQ9 22-567): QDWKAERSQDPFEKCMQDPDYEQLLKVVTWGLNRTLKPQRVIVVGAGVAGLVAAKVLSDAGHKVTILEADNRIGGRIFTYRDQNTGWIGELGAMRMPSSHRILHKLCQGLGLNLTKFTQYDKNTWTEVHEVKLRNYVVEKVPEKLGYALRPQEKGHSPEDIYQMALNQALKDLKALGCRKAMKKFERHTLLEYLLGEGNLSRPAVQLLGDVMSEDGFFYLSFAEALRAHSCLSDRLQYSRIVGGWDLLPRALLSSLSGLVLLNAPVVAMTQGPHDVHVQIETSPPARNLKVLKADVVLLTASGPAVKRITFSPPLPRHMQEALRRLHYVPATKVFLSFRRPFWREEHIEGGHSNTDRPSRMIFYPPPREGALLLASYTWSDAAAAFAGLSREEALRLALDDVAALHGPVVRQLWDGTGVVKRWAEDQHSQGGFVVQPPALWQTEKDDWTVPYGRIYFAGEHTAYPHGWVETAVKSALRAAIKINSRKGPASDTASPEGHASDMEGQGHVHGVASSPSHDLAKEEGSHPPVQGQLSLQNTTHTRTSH
measurement_notes: IL4I1 Enzymatic Assay (Amplex Red/HRP coupled H2O2 detection)
measurement_setup: 1 nM IL4I1, 1 mM each Phe/Tyr/Trp, four-hour pre-incubation, 120 minutes reaction, top compound concentration of 10000 nM
outcome_measure: log10(EC50) (log10 of the value in µM)
Lab note - EC50 converted to log10 from values in µM.

Field: example entries. Status: answers known.
compound	log10(EC50)
O=c1[nH]c2ccccc2cc1Cc1nnc(-c2cc(C(F)(F)F)[nH]n2)o1 [Example 28]	-0.90
CC1(c2ccc(Cc3cc4ccccc4[nH]c3=O)cc2)CCC(=O)N1 (single isomer, unassigned) [Example 183B]	-1.95
CS(=N)(=O)Cc1ccc(Cc2cc3ccccc3[nH]c2=O)cc1 (single isomer, unassigned) [Example 187]	-1.54
O=c1[nH]c2ccccc2cc1Cc1ccc(C(O)C(F)(F)F)cc1 (racemic) [Example 126]	-2.57
CC(=O)NCc1ccc(Cc2cc3ccccc3[nH]c2=O)c(F)c1 [Example 167]	-2.31

Then there is this compound:
// fetch log10(EC50) given entry CS(=O)(=O)NCc1ncc(Cc2cc3ccccc3[nH]c2=O)cc1Cl [Example 91]
-1.96

###

system: recombinant IL4I1 (Homo sapiens (Human), UniProt Q96RQ9)
measurement_notes: IL4I1 Enzymatic Assay (Amplex Red/HRP coupled H2O2 detection)
measurement_setup: 1 nM IL4I1, 1 mM each Phe/Tyr/Trp, four-hour pre-incubation, 120 minutes reaction, top compound concentration of 10000 nM
outcome_measure: log10(EC50) (log10 of the value in nM)
Lab note - EC50 converted to log10 from values in nM.

molecule	log10(EC50)
CC(=O)NCc1ncc(Cc2cc3ccccc3[nH]c2=O)cc1Cl [Example 68]	1.09
O=c1[nH]c2ccc(Cc3cc4ccccc4[nH]c3=O)cc2o1 [Example 121]	-0.05
O=C1NCCc2ccc(Cc3cc4ccccc4[nH]c3=O)cc21 [Example 77]	0.67

// fetch log10(EC50) given entry N#CC1(c2ccc(Cc3cc4ccccc4[nH]c3=O)cc2)CCOCC1 [Example 107]
0.51

// fetch log10(EC50) given entry O=c1[nH]c2ccccc2cc1Cc1nnc(-c2cn3cccnc3n2)o1 [Example 12]
2.63

// fetch log10(EC50) given entry CC1(Nc2ccc(Cc3cc4ccccc4[nH]c3=O)cc2)CNC1 [Example 58]
0.99

// fetch log10(EC50) given entry Cn1cc2c(Cc3cc4cc(F)ccc4[nH]c3=O)cccc2n1 [Example 163]
0.73

// fetch log10(EC50) given entry O=c1[nH]c2ccccc2cc1Cc1nnc(C2CCCCC2)o1 [Example 9]
1.71

// fetch log10(EC50) given entry CCn1cc(Cc2cc3ccccc3[nH]c2=O)cn1 [Example 112]
1.78

// fetch log10(EC50) given entry O=C1COc2ccc(Cc3cc4ccccc4[nH]c3=O)cc2N1 [Example 155]
0.30

// fetch log10(EC50) given entry N#Cc1n[nH]c2ccc(Cc3cc4cnccc4[nH]c3=O)cc12 [Example 95]
0.40

// fetch log10(EC50) given entry O=C1COc2ncc(Cc3cc4ccccc4[nH]c3=O)cc2N1 [Example 89]
0.65

// fetch log10(EC50) given entry Cc1c(Cc2cc3ccccc3[nH]c2=O)cnn1C [Example 109]
1.60
